subject of test: F508delCFTR (Homo sapiens, UniProt P13569, DEL508-508)
Construct: expressed in transfected cells; host or cells: CFBE41o- human lung derived epithelial cells (CFBE41o-F508delCFTR-HRP), doxycycline-inducible
Sequence (P13569 with tags, fused parts or gaps DEL508-508): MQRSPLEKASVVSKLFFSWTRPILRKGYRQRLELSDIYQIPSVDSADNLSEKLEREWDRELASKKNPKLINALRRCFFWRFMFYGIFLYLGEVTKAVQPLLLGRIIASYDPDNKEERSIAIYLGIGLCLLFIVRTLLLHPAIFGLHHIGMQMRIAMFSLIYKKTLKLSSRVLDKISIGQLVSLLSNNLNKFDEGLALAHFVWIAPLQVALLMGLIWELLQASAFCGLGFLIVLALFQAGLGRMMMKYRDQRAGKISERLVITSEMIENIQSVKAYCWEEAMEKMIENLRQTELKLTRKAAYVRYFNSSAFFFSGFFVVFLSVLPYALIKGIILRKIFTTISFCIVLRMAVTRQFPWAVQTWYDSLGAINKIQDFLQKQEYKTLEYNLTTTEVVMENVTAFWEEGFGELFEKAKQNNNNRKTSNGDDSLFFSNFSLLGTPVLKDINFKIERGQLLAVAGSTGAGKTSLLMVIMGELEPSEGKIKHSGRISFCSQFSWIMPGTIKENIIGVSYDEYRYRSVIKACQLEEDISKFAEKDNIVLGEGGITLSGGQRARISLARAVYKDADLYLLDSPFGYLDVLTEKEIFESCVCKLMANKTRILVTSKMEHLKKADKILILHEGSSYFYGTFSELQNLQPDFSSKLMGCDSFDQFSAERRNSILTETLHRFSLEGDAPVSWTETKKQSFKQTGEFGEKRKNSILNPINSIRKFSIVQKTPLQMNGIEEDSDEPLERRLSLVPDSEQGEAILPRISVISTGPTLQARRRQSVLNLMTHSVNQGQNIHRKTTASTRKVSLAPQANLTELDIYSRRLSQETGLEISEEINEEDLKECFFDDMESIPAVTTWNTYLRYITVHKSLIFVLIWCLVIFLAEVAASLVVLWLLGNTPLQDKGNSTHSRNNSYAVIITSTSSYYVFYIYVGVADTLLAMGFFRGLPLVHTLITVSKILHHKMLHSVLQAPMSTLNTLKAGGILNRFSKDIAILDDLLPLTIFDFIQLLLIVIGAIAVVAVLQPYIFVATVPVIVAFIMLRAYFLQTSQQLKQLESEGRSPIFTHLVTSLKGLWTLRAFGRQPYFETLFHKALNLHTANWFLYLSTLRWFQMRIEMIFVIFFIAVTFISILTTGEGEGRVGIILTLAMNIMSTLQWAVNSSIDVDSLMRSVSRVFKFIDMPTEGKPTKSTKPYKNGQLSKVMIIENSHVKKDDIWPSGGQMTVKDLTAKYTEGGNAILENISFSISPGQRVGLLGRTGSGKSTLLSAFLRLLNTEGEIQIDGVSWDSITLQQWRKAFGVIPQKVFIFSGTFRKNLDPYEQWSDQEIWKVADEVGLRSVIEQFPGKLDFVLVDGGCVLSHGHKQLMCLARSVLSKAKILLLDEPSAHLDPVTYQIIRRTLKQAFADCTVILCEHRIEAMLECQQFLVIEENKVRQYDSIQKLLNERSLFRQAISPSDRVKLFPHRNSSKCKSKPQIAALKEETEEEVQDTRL
assay text: Cell Surface Expression-Horse Radish Peroxidase (CSE-HRP) Assay
Format: cell-based
condition: with co-corrector; maximum at any tested concentration

[
  {
    "structure smiles": "COc1ncc(C2CCC2)cc1C1(C(=O)NS(=O)(=O)c2cccc3c2ccn3C)CC1",
    "subject of test": "F508delCFTR (Homo sapiens, UniProt P13569, DEL508-508)",
    "Maximum % activity (with co-corrector)": "+++ (≥350)"
  },
  {
    "structure smiles": "COc1ncc(C(F)(F)F)cc1C1(C(=O)NS(=O)(=O)c2cccc3ncc(C)n23)CC1",
    "subject of test": "F508delCFTR (Homo sapiens, UniProt P13569, DEL508-508)",
    "Maximum % activity (with co-corrector)": "+++ (≥350)"
  },
  {
    "structure smiles": "COc1ccc(C2CC2)c(C)c1C1(C(=O)NS(=O)(=O)c2cccc3c2CCCN3)CC1",
    "subject of test": "F508delCFTR (Homo sapiens, UniProt P13569, DEL508-508)",
    "Maximum % activity (with co-corrector)": "+++ (≥350)"
  }
]

====

subject of test: F508delCFTR (Homo sapiens, UniProt P13569, DEL508-508)
Construct: expressed in transfected cells; host or cells: CFBE41o- human lung derived epithelial cells (CFBE41o-F508delCFTR-HRP), doxycycline-inducible
assay text: Cell Surface Expression-Horse Radish Peroxidase (CSE-HRP) Assay;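 as to EC50 (with co-corrector): co-corrector chromenyl benzoic acid corrector at 2 or 3 µM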
Assay type: cell-based
condition: test compound with co-corrector; read-out: EC50 (with co-corrector)
pEC50: −log10 of the molar value.
measured endpoint: pEC50

Ask: Sample COc1cnc(OC(C)C)c(C2(C(=O)NS(=O)(=O)c3cccc4[nH]ccc34)CC2)c1 — what was its pEC50?
Result: > 5.52

Ask: Ok, now Cc1ccc(C2(C(=O)NS(=O)(=O)c3cccc4ncccc34)CC2)c(OC(C)C)n1
Result: > 5.52

Ask: Ok, now CC(C)Oc1ncc(CO)cc1C1(C(=O)NS(=O)(=O)c2cccc3ncccc23)CC1
Result: < 5.00

Ask: Ok, now Cc1cnc(N2CCN(C)CC2)c(C2(C(=O)NS(=O)(=O)c3cccc4ncccc34)CC2)c1
Result: < 5.00

====

Below, each entry is listed alongside its reported pEC50.
subject of test: F508delCFTR (Homo sapiens, UniProt P13569, DEL508-508)
Construct: expressed in transfected cells; host or cells: CFBE41o- human lung derived epithelial cells (CFBE41o-F508delCFTR-HRP), doxycycline-inducible
assay text: Cell Surface Expression-Horse Radish Peroxidase (CSE-HRP) Assay
Type: cell-based
condition: test compound alone, without co-corrector; read-out: EC50 (without co-corrector)
pEC50: −log10 of the molar value.

Consider the reported pEC50 for these compounds:
[
  {
    "compound": "COc1nc2ccccc2cc1C1(C(=O)NS(=O)(=O)c2cccc3nc(C)ccc23)CC1 [Example I-75]",
    "subject of test": "F508delCFTR (Homo sapiens, UniProt P13569, DEL508-508)",
    "meas value": "5.00 to 5.52"
  },
  {
    "compound": "CCn1nc(C)cc1C1(C(=O)NS(=O)(=O)c2cccc3ccccc23)CC1 [II-4]",
    "subject of test": "F508delCFTR (Homo sapiens, UniProt P13569, DEL508-508)",
    "meas value": "5.00 to 5.52"
  },
  {
    "compound": "CCOc1ccc(C)cc1C1(C(=O)NS(=O)(=O)c2cccc3nc(N)ccc23)CC1 [Example I-89]",
    "subject of test": "F508delCFTR (Homo sapiens, UniProt P13569, DEL508-508)",
    "meas value": "> 5.52"
  },
  {
    "compound": "COc1ccc(Br)cc1C1(C(=O)NS(=O)(=O)c2cccc3c2CCCN3)CCC1 [Example I-9]",
    "subject of test": "F508delCFTR (Homo sapiens, UniProt P13569, DEL508-508)",
    "meas value": "> 5.52"
  }
]

Ask: Provide the documented pEC50 with F508delCFTR (Homo sapiens, UniProt P13569, DEL508-508) as the system for CCOc1cccc(OCC)c1C1(C(=O)NS(=O)(=O)c2cccc3ncccc23)CC1 [Example I-66]
Result: > 5.52

Ask: Ok, now COc1cc(C2(C(=O)NS(=O)(=O)c3cccc4[nH]ncc34)CC2)c(OCC(C)C)cn1 [II-91]
Result: 5.00 to 5.52

Ask: Ok, now Cc1cnc(OCC(C)C)c(C2(C(=O)NS(=O)(=O)c3cccc4[nH]ncc34)CC2)c1 [Example III-130]
Result: 5.00 to 5.52
